# system tested: V158D/E296V/M298Q-FVIIa (Homo sapiens, UniProt P08709, E356V/M358Q/V218D)
# Construct: made in house
# procedure summary: Isothermal titration calorimetry (iTC200) binding to V158D/E296V/M298Q-FVIIa
# assay context: pH 8.5, 20° C.
measurement name: Kd

Challenge: Any idea what Kd was measured for N=C(N)c1ccc2[nH]c(-c3cc(CC(=O)N[C@@H](CC(=O)O)C(=O)O)cc(-c4cc(S(N)(=O)=O)ccc4O)c3O)nc2c1 [Formula I] ?
Response given: 6 nM

* * *

Collected pKd values appear next to each entry.
# system tested: SF-rFVIIa (Homo sapiens)
# Construct: made in house
# procedure summary: Isothermal titration calorimetry (iTC200) binding to SF-rFVIIa
# assay context: SF-rFVIIa, iTC200, binding buffer pH 7.4, 20° C.
# Method: All proteases were dialyzed extensively in binding buffer: 10 mM HEPES pH 7.4, 150 mM NaCl, 0.005% v/v Surfactant P20, 5 mM CaCl2. All binding experiments were carried out in binding buffer unless otherwise indicated. The active site stabilizing agent set forth Formula I was dissolved in 50 mM Tris pH 8.0 to a final concentration of 9 mM giving a yellow colour. Isothermal titration calorimetry (iTC200, from GE healthcare) was chosen as the method of choice for determining binding parameters. […]
// scale note: pKd = -log10(conc_M); give the bare number

Sample records with pKd:
Challenge: Record N=C(N)c1ccc2[nH]c(-c3cc(CC(=O)N[C@@H](CC(=O)O)C(=O)O)cc(-c4cc(S(N)(=O)=O)ccc4O)c3O)nc2c1 : what is its pKd with SF-rFVIIa (Homo sapiens)?
Response given: 7.70

Challenge: Any idea what pKd came out for N=C(N)c1ccc2[nH]c(-c3cc(CC(=O)N[C@H](CC(=O)O)C(=O)O)cc(-c4cc(S(N)(=O)=O)ccc4O)c3O)nc2c1 on SF-rFVIIa (Homo sapiens)?
Response given: 7.92

Consider the record given below.
Challenge: Lab request: please report pKd under test system SF-rFVIIa (Homo sapiens) for COc1cccc([C@H](C)NC(=O)CNC(=O)Nc2ccc(C(=N)N)cc2)c1 [Formula A, reference compound]
Response given: 5.75
